Test: On-bead menaquinone complexation assay (fluorescence of 2H)
Format: binding
Conditions: single library bead (hit beads >1000 a.u.); average of three readings
Where a SMILES comes first, the peptide text is derived from it. Bridges are numbered along the chain shown (N, C = ends). [ ]: non-standard residue; d: D form. The star is where a group is joined. Hexanoyl(3R-OH,5-Me) = CC(C)C[C@@H](O)CC(=O)*; dNMeF = CN[C@H](Cc1ccccc1)C(=O)O
Quantity: fluorescence intensity of 2H (a.u.)
One number for each entry, in a.u..

Task item: // lookup fluorescence intensity of 2H for CC[C@H](C)[C@@H]1NC(=O)[C@@H](Cc2c[nH]c3ccccc23)NC(=O)[C@@H](C(C)C)NC(=O)[C@H](CCC(=O)O)NC(=O)[C@@H](CCCNC(=N)N)NC(=O)[C@H](CC(C)C)NC(=O)[C@@H](Cc2ccccc2)N(C)C(=O)CNC(=O)[C@H](C)NC(=O)[C@@H](CCCNC(=N)N)NC(=O)[C@@H](NC(=O)C[C@H](O)CC(C)C)[C@@H](C)OC(=O)[C@H]([C@@H](C)O)NC1=O [Peptide A2] ({Hexanoyl(3R-OH,5-Me)}-T[dR]AG[dNMeF]L[dR]E[dV][dW]IT; ester 1-C)
Reply: 1152.24
